- system: histamine H2 (guinea-pig gastric fundus) (Cavia porcellus, UniProt P47747)
- Construct: acid secretion of the isolated gastric fundus of the guinea-pig; from tissue; host or cells: guinea-pig gastric fundus (isolated organ)
- Sequence (P47747 whole entry): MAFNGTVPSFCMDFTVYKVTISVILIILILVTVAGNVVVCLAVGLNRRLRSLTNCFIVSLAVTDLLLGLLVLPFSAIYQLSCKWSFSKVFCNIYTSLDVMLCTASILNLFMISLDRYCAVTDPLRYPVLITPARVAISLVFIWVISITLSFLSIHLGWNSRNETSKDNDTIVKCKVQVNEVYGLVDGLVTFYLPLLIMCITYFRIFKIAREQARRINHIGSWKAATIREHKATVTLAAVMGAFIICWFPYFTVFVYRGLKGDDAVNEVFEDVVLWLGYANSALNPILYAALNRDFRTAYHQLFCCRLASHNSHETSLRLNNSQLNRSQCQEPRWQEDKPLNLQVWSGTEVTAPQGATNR
- assayExplanation: Histamine H2-activity, acid secretion of the isolated gastric fundus of the guinea-pig
Provide the recorded EC50 for the entries that follow.
Your answer is read as µM, so omit the unit and give the number.

Task item: Assign EC50 to the following record: N=C(NCCSC(c1ccccc1)c1ccccc1)NCCc1c[nH]cn1
Reply: 12.6

Task item: Assign EC50 to the following record: Cc1[nH]cnc1CSCCNC(=N)NCCCc1c[nH]cn1 [Impromidine, reference compound]
Reply: 0.00316

----------
- system: histamine H1 (guinea-pig ileum) (Cavia porcellus, UniProt P31389)
- Construct: from tissue; host or cells: guinea-pig ileum (isolated organ)
- Sequence (P31389 whole entry): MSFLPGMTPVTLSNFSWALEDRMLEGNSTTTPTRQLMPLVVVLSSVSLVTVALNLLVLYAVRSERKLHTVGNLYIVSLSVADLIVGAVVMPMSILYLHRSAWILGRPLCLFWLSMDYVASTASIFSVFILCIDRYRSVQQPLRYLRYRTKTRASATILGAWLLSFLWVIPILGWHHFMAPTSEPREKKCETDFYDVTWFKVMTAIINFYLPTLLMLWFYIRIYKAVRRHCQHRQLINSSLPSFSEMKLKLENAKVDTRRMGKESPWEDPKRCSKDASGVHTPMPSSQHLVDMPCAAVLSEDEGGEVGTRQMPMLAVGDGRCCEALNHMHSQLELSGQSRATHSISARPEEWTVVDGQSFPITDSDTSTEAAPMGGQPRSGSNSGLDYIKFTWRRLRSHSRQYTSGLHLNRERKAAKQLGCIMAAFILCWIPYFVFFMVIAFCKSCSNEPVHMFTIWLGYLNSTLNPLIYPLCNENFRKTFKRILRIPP
- assayExplanation: Histamine H1-activity, guinea-pig ileum
- experimentalContext: guinea-pig ileum; ±0,2; mean of at least two experiments in quadruplicate
Provide the recorded Kb for the entries that follow.
Your answer is read as nM, so omit the unit and give the number.

Task item: Assign Kb to the following record: Cc1ccccc1C(SCCNC(=N)NCCCc1c[nH]cn1)c1ccccn1 (stereo not shown)
Reply: 398

Task item: Assign Kb to the following record: Cc1ccc(C(SCCNC(=N)NCCCc2c[nH]cn2)c2ccccc2)cc1 (stereo not shown)
Reply: 398

Task item: Assign Kb to the following record: Cc1ccc(C(SCCNC(=N)NCCc2c[nH]cn2)c2ccccc2)cc1 (stereo not shown)
Reply: 251

Task item: Assign Kb to the following record: N=C(NCCCc1c[nH]cn1)NCCN(Cc1ccccc1)c1ccccc1
Reply: 25.1

Task item: Assign Kb to the following record: N=C(NCCCc1c[nH]cn1)NCCSC(c1ccccc1)c1ccc(F)cc1 (stereo not shown)
Reply: 251

Task item: Assign Kb to the following record: N=C(NCCCc1c[nH]cn1)NCCC(c1ccccc1)c1ccccc1
Reply: 501

Task item: Assign Kb to the following record: N=C(NCC=C(c1ccccc1)c1ccccc1)NCCCc1c[nH]cn1
Reply: 200
